Tested on: pilocarpine-induced seizures
Protocol summary: Pilocarpine assay (seizure model)
Type: in vivo, adult male Sprague-Dawley rats
Protocol conditions: 100 mg/kg i.p., 20 min before pilocarpine hydrochloride 350 mg/kg i.p.; 30 minute observation

Compound: COC(=O)CC(NC(C)c1ccccc1)c1ccc2c(c1)cc(C)n2S(=O)(=O)c1ccccc1 (centres unmarked)
Pilocarpine, activity in words: Active
//
Compound: COC(=O)CC(NC(C)c1ccccc1)c1cc2ccccc2o1 (centres unmarked)
Pilocarpine, activity in words: Active
//
Compound: COC(=O)CC(Nc1ccccc1OC)c1ccc2ccccc2n1 (centres unmarked)
Pilocarpine, activity in words: Active
//
Compound: COC(=O)CC(Nc1ccccc1OC)c1cc2ccccc2nc1Cl (centres unmarked)
Pilocarpine, activity in words: Min. Active
//
Compound: COC(=O)CC(NC(C)c1ccccc1)c1ccc2ccccc2n1 (centres unmarked)
Pilocarpine, activity in words: Active
//
Compound: CC(NC(CC(=O)O)c1ccc2ccccc2n1)c1ccccc1 (centres unmarked)
Pilocarpine, activity in words: Active
//
Compound: NC(CC(=O)O)c1cccs1 (centres unmarked)
Pilocarpine, activity in words: Active
//
Compound: NC(CC(=O)O)c1ccc2c(c1)OCCO2 (centres unmarked)
Pilocarpine, activity in words: Min. Active
//
Compound: O=C(CC(c1ccc2ccccc2n1)N(Cc1ccccc1)Cc1ccccc1)N(Cc1ccccc1)Cc1ccccc1 (centres unmarked)
Pilocarpine, activity in words: Min. Active
//
Compound: COC(=O)CC(NC(C)c1ccccc1)c1cnc2ccccc2c1 (centres unmarked)
Pilocarpine, activity in words: Min. Active

The origin of these recorded values is patent US20030114441A1.
